We begin with a simple list: items and their reported cell viability.
# Test system: NOMO1
# test_method_notes: cell viability relative to DMSO control; higher = less cytotoxic
# assay_setup: RPMI 5 mM glucose + 10% FBS; 48 h; 15.4 µM

compound: O=C(O)C(=O)Nc1cccc(-c2nnn[nH]2)c1
target_desc: NOMO1
cell viability / %: 120
--
compound: CCCCC(F)(F)[C@@]1(O)CC[C@H]2[C@@H](CC(=O)[C@@H]2CCCCCCC(=O)O)O1
target_desc: NOMO1
cell viability / %: 111
--
compound: C[C@]12CCC(=O)C(O)=C1CC[C@@H]1[C@@H]2CC[C@]2(C)C(=O)CC[C@@H]12
target_desc: NOMO1
cell viability / %: 98.9
--
compound: CNCCN(C)Cc1c[nH]nc1-c1ccc(O[C@H]2C[C@H](OCCC3CCOCC3)C2)cc1
target_desc: NOMO1
cell viability / %: 148
--
compound: COc1ccccc1OCC(O)CN1CCN(CC(=O)Nc2c(C)cccc2C)CC1 (centres undefined)
target_desc: NOMO1
cell viability / %: 139
--
compound: COc1cc([C@@H]2c3cc4c(cc3[C@@H](O[C@@H]3O[C@@H]5CO[C@@H](C)O[C@H]5[C@H](O)[C@H]3O)[C@H]3COC(=O)[C@H]23)OCO4)cc(OC)c1O
target_desc: NOMO1
cell viability / %: 11.7
--
compound: C[C@@H](Oc1ccc2[nH]nc(/C=C/c3cnn(CCO)c3)c2c1)c1c(Cl)cncc1Cl
target_desc: NOMO1
cell viability / %: 40
--
compound: CC(=O)OCC(CCn1cnc2cnc(N)nc21)COC(C)=O
target_desc: NOMO1
cell viability / %: 94.2
--
compound: N[S+](=O)([O-])c1cc2c(cc1Cl)NCN[S+]2(=O)[O-]
target_desc: NOMO1
cell viability / %: 112
